method_notes: Tmax in male Sprague-Dawley rat at 10 mg/kg, po measured on day 1 by UP/LC/MS/MS analysis
Format: ADME, organism-based
recorded_conditions: in vivo, time 1 day

smiles_text | Tmax / h
Cl.c1ccc2c(c1)nnn2CCCCN1CCN(c2nsc3ccccc23)CC1 | 1

----------
method_notes: Toxicity in Sprague-Dawley rat at 10 to 100 mg/kg, po qd treated for 13 weeks
Format: organism-based
recorded_conditions: in vivo, dose 10-100 mg/kg

smiles_text | NOAEL at 2184 h
Cl.c1ccc2c(c1)nnn2CCCCN1CCN(c2nsc3ccccc23)CC1 | 100 mg/kg

----------
method_notes: Tmax in female Sprague-Dawley rat at 10 mg/kg, po qd treated for 13 weeks consecutively measured after recovery period on day 91 by UP/LC/MS/MS analysis
Format: ADME, organism-based
recorded_conditions: in vivo, time 91 day

smiles_text | unit_text | Tmax
Cl.c1ccc2c(c1)nnn2CCCCN1CCN(c2nsc3ccccc23)CC1 | h | 1

----------
assayed_system: Alpha-1A adrenergic receptor (Homo sapiens)
Sequence (whole entry): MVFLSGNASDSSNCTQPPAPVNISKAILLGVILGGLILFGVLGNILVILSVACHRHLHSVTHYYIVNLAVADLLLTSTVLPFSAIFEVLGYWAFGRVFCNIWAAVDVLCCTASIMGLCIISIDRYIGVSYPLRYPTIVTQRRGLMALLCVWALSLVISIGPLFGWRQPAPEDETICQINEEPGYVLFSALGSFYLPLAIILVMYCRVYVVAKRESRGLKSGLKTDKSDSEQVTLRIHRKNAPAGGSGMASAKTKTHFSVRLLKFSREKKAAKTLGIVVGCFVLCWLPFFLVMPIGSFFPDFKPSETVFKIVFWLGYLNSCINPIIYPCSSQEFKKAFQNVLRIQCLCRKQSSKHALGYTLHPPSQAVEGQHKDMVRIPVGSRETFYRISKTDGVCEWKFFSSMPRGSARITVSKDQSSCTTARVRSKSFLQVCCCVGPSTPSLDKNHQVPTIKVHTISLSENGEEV
method_notes: Displacement of [3H]prazosin from recombinant human alpha 1A adrenoceptor extracted from CHO cell membrane at 100 nM incubated for 60 mins by radioligand binding assay relative to control
Format: cell membranes
recorded_conditions: filed as antagonist
Let's look at some compounds and their measured inhibition.

smiles_text | unit_text | inhibition
COc1ccccc1N1CCN(CCCCn2cnc3ccccc32)CC1 | % | 86.9
Fc1ccc2c(C3CCN(CCCn4nc5ccccc5n4)CC3)noc2c1 | % | 99
FC(F)(F)c1cccc(N2CCN(CCCCn3nc4ccccc4n3)CC2)c1 | % | 53
Fc1ccc2c(N3CCN(CCCCn4nnc5ccccc54)CC3)noc2c1 | % | 96.9
Fc1ccc2c(N3CCN(CCCn4cnc5ccccc54)CC3)noc2c1 | % | 100
c1ccc2c(c1)ncn2CCCN1CCN(c2nsc3ccccc23)CC1 | % | 98
FC(F)(F)c1cccc(N2CCN(CCCCCn3nc4ccccc4n3)CC2)c1 | % | 44.8
Clc1cccc(N2CCN(CCCCn3nnc4ccccc43)CC2)c1 | % | 97.4
COc1cccc(N2CCN(CCCCn3cnc4ccccc43)CC2)c1 | % | 95.6
FC(F)(F)c1cccc(N2CCN(CCCCn3cnc4ccccc43)CC2)c1 | % | 89.3
Fc1ccc2c(N3CCN(CCCCn4nc5ccccc5n4)CC3)noc2c1 | % | 101
Fc1ccc2c(C3CCN(CCCCn4nnc5ccccc54)CC3)noc2c1 | % | 101
Fc1ccc2c(C3CCN(CCCCn4nc5ccccc5n4)CC3)noc2c1 | % | 99.9
Fc1ccc2c(C3CCN(CCCn4cnc5ccccc54)CC3)noc2c1 | % | 99.9
Clc1cccc(N2CCN(CCCCn3cnc4ccccc43)CC2)c1 | % | 98.5

----------
method_notes: Plasma protein binding in human at 10 uM incubated for 30 mins
Assay type: ADME, cell-free
recorded_conditions: read-out: PPB (converted)
parameter_measured: fraction unbound at 0.5 h, 10 µM

smiles_text | reported_value
Cl.c1ccc2c(c1)nnn2CCCCN1CCN(c2nsc3ccccc23)CC1 | 0.004

----------
assayed_system: 5-hydroxytryptamine receptor 2A (Homo sapiens)
method_notes: Displacement of [3H]Ketanserin from recombinant human 5-HT2A receptor extracted from CHO cell membrane at 10 nM incubated for 60 mins by radioligand binding assay relative to control
Type: cell membranes
recorded_conditions: filed as antagonist
Reported inhibition values for the following compounds.
parameter_measured: inhibition

smiles_text | reported_value
O=C(c1ccc(F)cc1)C1CCN(CCn2c(=O)[nH]c3ccccc3c2=O)CC1 | 89.6%
Fc1ccc2c(C3CCN(CCCCn4nc5ccccc5n4)CC3)noc2c1 | 82%
Fc1ccc2c(N3CCN(CCCn4nc5ccccc5n4)CC3)noc2c1 | 79.1%
Fc1ccc2c(C3CCN(CCCCn4cnc5ccccc54)CC3)noc2c1 | 81.9%
Fc1ccc2c(N3CCN(CCCCn4cnc5ccccc54)CC3)noc2c1 | 83.1%
c1ccc2c(c1)ncn2CCCN1CCN(c2nsc3ccccc23)CC1 | 68.8%
Fc1ccc2c(N3CCN(CCCCn4nc5ccccc5n4)CC3)noc2c1 | 61.1%
Fc1ccc2c(C3CCN(CCCn4nnc5ccccc54)CC3)noc2c1 | 96.4%
Fc1ccc2c(C3CCN(CCCn4cnc5ccccc54)CC3)noc2c1 | 76%
c1ccc2c(c1)nnn2OCCCN1CCN(c2nsc3ccccc23)CC1 | 81.3%
c1ccc2c(c1)nnn2CCCN1CCN(c2nsc3ccccc23)CC1 | 89.4%
Fc1ccc2c(C3CCN(CCCn4nc5ccccc5n4)CC3)noc2c1 | 98.7%
c1ccc2nn(CCCCN3CCN(c4nsc5ccccc45)CC3)nc2c1 | 78.3%
Fc1ccc2c(N3CCN(CCCCn4nnc5ccccc54)CC3)noc2c1 | 71.5%
Cl.c1ccc2c(c1)nnn2CCCCN1CCN(c2nsc3ccccc23)CC1 | 96%
Fc1ccc2c(N3CCN(CCCn4nnc5ccccc54)CC3)noc2c1 | 80.9%
c1ccc2c(c1)ncn2CCCCN1CCN(c2nsc3ccccc23)CC1 | 93.4%
Fc1ccc2c(N3CCN(CCCn4cnc5ccccc54)CC3)noc2c1 | 87.3%
Fc1ccc2c(C3CCN(CCCCn4nnc5ccccc54)CC3)noc2c1 | 89.5%

----------
method_notes: Plasma protein binding in human at 0.1 uM incubated for 30 mins
Type: ADME, cell-free
recorded_conditions: read-out: PPB (converted)

smiles_text | fraction unbound at 0.5 h, 0.1 µM
Cl.c1ccc2c(c1)nnn2CCCCN1CCN(c2nsc3ccccc23)CC1 | 0.003

----------
method_notes: Tmax in Sprague-Dawley rat at 1 mg/kg, po measured for 24 hrs by UPLC/MS/MS analysis
Assay type: ADME, organism-based
recorded_conditions: in vivo

smiles_text | Tmax, min
Cl.c1ccc2c(c1)nnn2CCCCN1CCN(c2nsc3ccccc23)CC1 | 9.6

----------
method_notes: Cmax in male Sprague-Dawley rat at 30 mg/kg, po qd treated for 13 weeks consecutively measured after recovery period on day 91 by UP/LC/MS/MS analysis
Format: ADME, organism-based
recorded_conditions: in vivo, time 91 day

smiles_text | Cmax, ng/mL
Cl.c1ccc2c(c1)nnn2CCCCN1CCN(c2nsc3ccccc23)CC1 | 238

----------
assayed_system: 5-hydroxytryptamine receptor 2A (Homo sapiens, UniProt P28223)
Sequence (P28223 whole entry): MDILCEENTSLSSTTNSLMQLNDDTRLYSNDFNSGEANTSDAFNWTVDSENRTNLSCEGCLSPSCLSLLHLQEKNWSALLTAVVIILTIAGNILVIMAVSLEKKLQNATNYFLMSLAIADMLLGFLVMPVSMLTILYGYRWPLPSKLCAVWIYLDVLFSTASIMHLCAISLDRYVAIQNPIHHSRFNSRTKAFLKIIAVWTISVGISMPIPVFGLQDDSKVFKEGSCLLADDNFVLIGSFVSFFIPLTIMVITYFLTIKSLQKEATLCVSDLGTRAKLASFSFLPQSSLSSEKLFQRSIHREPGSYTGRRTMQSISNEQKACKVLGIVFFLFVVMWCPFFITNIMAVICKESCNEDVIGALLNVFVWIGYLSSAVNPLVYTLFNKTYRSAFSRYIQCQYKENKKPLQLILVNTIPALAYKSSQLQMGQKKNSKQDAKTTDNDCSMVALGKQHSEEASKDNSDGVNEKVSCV
method_notes: Displacement of [3H]Ketanserin from recombinant human 5-HT2A receptor extracted from CHO cell membrane at 100 nM incubated for 60 mins by radioligand binding assay relative to control
Type: cell membranes
recorded_conditions: filed as antagonist
Assign class by inhibition: not lower than 90% means t; lower than 90% means f.

smiles_text | class_name
Fc1ccc2c(N3CCN(CCCn4nnc5ccccc54)CC3)noc2c1 | t
COc1ccccc1N1CCN(CCCCn2cnc3ccccc32)CC1 | f
Clc1cccc(N2CCN(CCCCn3cnc4ccccc43)CC2)c1 | f
c1ccc2nn(CCCCN3CCN(c4nsc5ccccc45)CC3)nc2c1 | t
Fc1ccc2c(C3CCN(CCCn4cnc5ccccc54)CC3)noc2c1 | t
FC(F)(F)c1cccc(N2CCN(CCCn3nnc4ccccc43)CC2)c1 | f
Fc1ccc2c(C3CCN(CCCCn4nc5ccccc5n4)CC3)noc2c1 | t
Clc1cccc(N2CCN(CCCCn3cnc4ccccc43)CC2)c1Cl | f
Fc1ccc2c(N3CCN(CCCCn4nc5ccccc5n4)CC3)noc2c1 | t
Fc1ccc2c(N3CCN(CCCCn4cnc5ccccc54)CC3)noc2c1 | t
Fc1ccc2c(N3CCN(CCCn4cnc5ccccc54)CC3)noc2c1 | t
c1ccc2c(c1)ncn2CCCN1CCN(c2nsc3ccccc23)CC1 | t
c1ccc2c(c1)nnn2CCCN1CCN(c2nsc3ccccc23)CC1 | t
FC(F)(F)c1cccc(N2CCN(CCCCCn3nnc4ccccc43)CC2)c1 | f
Fc1ccc2c(N3CCN(CCCCn4nnc5ccccc54)CC3)noc2c1 | t
FC(F)(F)c1cccc(N2CCN(CCCCn3nnc4ccccc43)CC2)c1 | f
Fc1ccc2c(C3CCN(CCCCn4cnc5ccccc54)CC3)noc2c1 | t
Fc1ccc2c(N3CCN(CCCn4nc5ccccc5n4)CC3)noc2c1 | t
c1ccc2c(c1)ncn2CCCCN1CCN(c2nsc3ccccc23)CC1 | t
Fc1cccc(N2CCN(CCCCn3nnc4ccccc43)CC2)c1 | f
FC(F)(F)c1cccc(N2CCN(CCCCCCn3nnc4ccccc43)CC2)c1 | f
FC(F)(F)c1cccc(N2CCN(CCCn3nc4ccccc4n3)CC2)c1 | f
